- TEST_DETAILS: Cytotoxicity against human MT4 cells assessed as cell viability after 5 days by MTT assay
- Format: cell-based
PARAMETER: CC50 at 120 h

Check out these entries, answers already filled in.
SUBSTANCE_SMILES: Cc1ccnc2c1NC(=O)c1cccnc1N2C1CC1
CC50 at 120 h: > 15 µM
//
SUBSTANCE_SMILES: O=c1[nH]cnc2c1ncn2[C@H]1CC[C@@H](CO)O1
CC50 at 120 h: > 211 µM

Q: Need CC50 at 120 h of `Cc1ccc(NC(=O)CSc2ncnn2-c2ccc(Cl)cc2Cl)c([N+](=O)[O-])c1` , thanks.
A: > 285 µM

###

- TEST_DETAILS: Selectivity index, ratio of CC50 for human MT4 cells to EC50 for HIV-2 ROD infected in human MT4 cells
- Assay type: toxicity, cell-based
- CONDITIONS_USED: uninfected and infected with HIV-2 ROD, read-out: Ratio CC50/EC50
PARAMETER: selectivity ratio

Check out these entries, answers already filled in.
COMPOUND: O=C(CSc1ncnn1-c1ccc(Cl)cc1Cl)Nc1ccc(Cl)cc1Cl
RESULT: < 1
--
COMPOUND: O=C(CSc1ncnn1-c1ccc(Cl)cc1Cl)Nc1ccccc1F
RESULT: < 1
--
COMPOUND: Cc1ccccc1NC(=O)CSc1ncnn1-c1ccc(Cl)cc1Cl
RESULT: < 1
--
COMPOUND: CC(=O)c1ccc(NC(=O)CSc2ncnn2-c2ccc(Cl)cc2Cl)c(Br)c1
RESULT: < 1
--
COMPOUND: O=C(CSc1ncnn1-c1ccc(Cl)cc1Cl)Nc1ccccc1Br
RESULT: < 1
--
COMPOUND: COC(=O)c1ccc(NC(=O)CSc2ncnn2-c2ccc(Cl)cc2Cl)c(Br)c1
RESULT: < 1
--
COMPOUND: CCOC(=O)c1ccc(NC(=O)CSc2ncnn2-c2ccc(Cl)cc2Cl)cc1
RESULT: < 1
--
COMPOUND: COC(=O)c1ccc(NC(=O)CSc2ncnn2-c2ccc(Cl)cc2Cl)cc1
RESULT: < 1
--
COMPOUND: O=c1[nH]cnc2c1ncn2[C@H]1CC[C@@H](CO)O1 [DIDANOSINE]
RESULT: > 13

Here's the next entry for you.
Q: Need selectivity ratio of Cc1cn([C@H]2C[C@H](N=[N+]=[N-])[C@@H](CO)O2)c(=O)[nH]c1=O [ZIDOVUDINE] , thanks.
A: > 28300

Value source: ChEMBL document CHEMBL1828518
